test system: LOX IMVI melanoma; test: NCI tumour cell line growth inhibition, 48 h
value_type: GI50

Recorded results for 3 compounds are shown here.
compound	GI50
CC1OC(O[C@H]2C[C@@H](O)[C@]3(CO)[C@H]4[C@H](O)C[C@]5(C)[C@@H](C6=CC(=O)OC6)CC[C@]5(O)[C@@H]4CC[C@]3(O)C2)C(O)C(O)C1O (stereo partly specified)	19 µM
O=C1/C(=C/c2ccc(Br)cc2)C=C(c2ccccc2)N1CCc1ccccc1	0.82 µM
C=C(CN1CCc2ccccc2C1)c1ccc(C(=O)Nc2cnccn2)cc1	9.18 µM

Dear colleague, I am looking for the recorded GI50 of the following compound: "COc1ccc(/C(=C2\O[C@@H]([C@H]3COC(C)(C)O3)[C@H]3OC(C)(C)O[C@@H]23)c2cc(OC)c(OC)c(OC)c2)cc1O"
5.18 µM

Dear colleague, I am looking for the recorded GI50 of the following compound: Cn1c(N2NC(=O)C(N=Nc3ccc(S(N)(=O)=O)cc3)C2=O)nc(-c2ccco2)c(C#N)c1=O (stereo unspecified)
8.08 µM

Dear colleague, I am looking for the recorded GI50 of the following compound: "Cc1cc(I)cc(CNCCCN2CCSCC2)c1O"
14.6 µM
